Test system: NCI-H358 cells (Kras G12C mutation)
Experiment: Cell proliferation inhibition experiment, 3D model, CellTiter-Glo (NCI-H358)
Type: cell-based, human
Details: Homo sapiens, NCI-H358, 120 h, NCI-H358, 3D sphere plate, 5 days, 2% FBS
reported_metric: log10 of IC50 (log10 of the value in nM)
The common logarithm of IC50 in nM is what is listed.

Here is how some compounds turned out for log10 of IC50.
C=CC(=O)N1CCN2c3nc(=O)n(-c4c(C)ccnc4C(C)C)c4cc(-c5c(O)cccc5F)cc(c34)OC[C@H]2C1
1.61
C=CC(=O)N1CCN2c3nc(=O)n(-c4c(C)ccnc4C(C)C)c4nc(-c5c(F)ccc(Cl)c5O)c(Cl)c(c34)OC[C@@H]2C1
0.60
C=CC(=O)N1CCN2c3nc(=O)n(-c4c(C)ccnc4C(C)C)c4nc(-c5c(F)cccc5C(F)(F)F)c(Cl)c(c34)OC[C@@H]2C1
1.62
C=CC(=O)N1CCN2c3nc(=O)n(-c4c(C)ccnc4C(C)C)c4nc(-c5c(F)cccc5OC)c(Cl)c(c34)OC[C@H]2C1
0.30
C=CC(=O)N1CCN2c3nc(=O)n(-c4c(C)ccnc4C(C)C)c4cc(-c5cccnc5N)c(Cl)c(c34)OC[C@H]2C1
2.50

Tell me its log10 of IC50 given C=CC(=O)N1CCN2c3nc(=O)n(-c4c(CO)ccnc4C(C)C)c4nc(-c5ccccc5F)c(Cl)c(c34)OC[C@H]2C1 as the entry. 0.85

Tell me measured log10 of IC50 for Cc1ccnc(C(C)C)c1-n1c(=O)nc2c3c(c(Cl)c(-c4ccccc4F)nc31)OC[C@H]1CN(C(=O)/C=C/CN(C)C)CCN21 (single isomer, unassigned) please. 1.67

Look up log10 of IC50 of C=CC(=O)N1CCN2c3nc(=O)n(-c4c(C)nc(OC)nc4C(C)C)c4nc(-c5c(O)cccc5F)c(F)c(c34)OC[C@H]2C1 and report it. 0.70

Indicate its recorded log10 of IC50; the compound in question is C=CC(=O)N1CCN2c3nc(=O)n(-c4c(C)ccnc4C(C)C)c4nc(-c5cc(Cl)ccc5F)c(Cl)c(c34)OC[C@@H]2C1 0.78

Find the measured log10 of IC50 of C=CC(=O)N1CCN2c3nc(=O)n(-c4c(C)ccnc4C(C)C)c4nc(-c5ccccc5Cl)c(F)c(c34)OC[C@H]2C1 and report it. 0.60

Look up and state reported log10 of IC50 for C=CC(=O)N1CCN2c3nc(=O)n(-c4c(C(C)C)ncnc4C(C)C)c4nc(-c5c(O)cccc5F)c(F)c(c34)OC[C@H]2C1 0.00

Please give measured log10 of IC50 of the following entry: C=CC(=O)N1CCN2c3nc(=O)n(-c4c(C(C)C)ncnc4C(C)C)c4nc(-c5c(O)cccc5F)c(Cl)c(c34)OC[C@H]2C1 0.00
